Values compiled from patent US20140057915A1.

Target: GSK3α (Homo sapiens, UniProt P49840)
Sequence (P49840 whole entry): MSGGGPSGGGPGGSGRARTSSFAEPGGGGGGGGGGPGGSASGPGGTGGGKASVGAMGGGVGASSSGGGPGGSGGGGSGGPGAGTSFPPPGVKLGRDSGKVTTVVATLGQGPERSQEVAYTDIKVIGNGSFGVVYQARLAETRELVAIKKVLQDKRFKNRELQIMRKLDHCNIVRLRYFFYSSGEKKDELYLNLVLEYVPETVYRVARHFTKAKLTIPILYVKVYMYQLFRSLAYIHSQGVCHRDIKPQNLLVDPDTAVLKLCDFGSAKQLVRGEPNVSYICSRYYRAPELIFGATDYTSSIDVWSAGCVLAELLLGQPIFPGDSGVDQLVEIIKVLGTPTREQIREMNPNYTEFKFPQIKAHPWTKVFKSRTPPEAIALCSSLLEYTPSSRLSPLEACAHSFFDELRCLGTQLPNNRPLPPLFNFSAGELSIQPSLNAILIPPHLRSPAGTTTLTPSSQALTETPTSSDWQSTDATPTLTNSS
Assay: GSK 3α enzyme inhibition (FRET), Method 1
Format: biochemical
Conditions: Table 4a1
pIC50: −log10 of the molar value.
measure-name: pIC50

Query string: I am curious: what pIC50 value has been reported for Cc1ccc(-n2nc(C(C)C)cc2NC(=O)Nc2ccc(Oc3ccnc(Nc4cc(Cl)cc(C(=O)NCCN5CCOCC5)c4)n3)c3ccccc23)cc1 ?
Result string: < 4.88

Continuing:
Query string: Looking for the measured pIC50 of COCCNC(=O)c1cc(Nc2nccc(Oc3ccc(NC(=O)Nc4cc(C(C)C)nn4-c4ccc(C)cc4)c4ccccc34)n2)cc(OC)c1 , can you help?
Result string: < 4.84

Query string: Lookup COc1ccc(C(=O)NCCN2CCOCC2)cc1Nc1nccc(Oc2ccc(NC(=O)Nc3cc(C(C)C)nn3-c3ccc(C)cc3)c3ccccc23)n1
Result string: < 4.88

Query string: Okay, and COc1ccc(C(=O)NCCO)cc1Nc1nccc(Oc2ccc(NC(=O)Nc3cc(C(C)C)nn3-c3ccc(C)cc3)c3ccccc23)n1 ?
Result string: < 4.84

Query string: Now consider COc1cc(Nc2nccc(Oc3ccc(NC(=O)Nc4cc(C(C)C)nn4-c4ccc(C)c(C)c4)c4ccccc34)n2)cc(C(=O)NCCN2CCOCC2)c1 .
Result string: < 4.89

Query string: Next record, please: COc1cc(Nc2nccc(Oc3ccc(NC(=O)Nc4cc(C(C)C)nn4-c4ccc(OC)nc4)c4ccccc34)n2)cc(C(=O)NCCN2CCOCC2)c1
Result string: < 4.89

Query string: // repeat for COCCNC(=O)c1cc(Nc2nccc(Oc3ccc(NC(=O)Nc4cc(C(C)C)nn4-c4ccc(OC)cc4)c4ccccc34)n2)cc(OC)c1 and report
Result string: < 4.85
